The reported numbers originate from patent US20080032921A1.

- Target desc: HLA-DR DRB1*0802 (human)
- Assay method text: competition with 125I-labeled reference peptide, purified HLA
Measurement kind: pIC50
Conceptually, pIC50 converts a concentration in mol/L into minus its log10.

# input binder: RREVHIYYLEKANKI (modifications not checked) [Flu.PA.127] ; wanted: its pIC50
7.02
